Origin of values: patent US20240025887A1

# Test system: MDA-MB-231 cells
# test.description: Tumor cell growth inhibition assay (ATPlite)
# Format: cell-based
# assay.setup: Homo sapiens, 120 h, MDA-MB-231 breast tumor cell line, 5 days
pIC50: −log10 of the molar value.
Reported pIC50 is given for each of the following molecules.
metric.name: pIC50

>  <mol>
CN1CCN(c2ccc(Nc3ncc(Cl)c(Nc4ccsc4C(N)=O)n3)c(OC(F)F)c2)CC1

>  <recorded.value>
6.71

$$$$
>  <mol>
CN1CCN(c2ccc(Nc3ncc(C#N)c(Nc4ccsc4C(N)=O)n3)c(OC(F)F)c2)CC1

>  <recorded.value>
6.92

$$$$
>  <mol>
CN1CCN(C2CCN(c3ccc(Nc4ncc(Cl)c(N[C@@H]5CCCC[C@H]5C(N)=O)n4)c(OC(F)F)c3)CC2)CC1

>  <recorded.value>
6.03

$$$$
>  <mol>
CN1CCN(C2CCN(c3ccc(Nc4ncc(Cl)c(Nc5ccsc5C(N)=O)n4)c(OC(F)F)c3)CC2)CC1

>  <recorded.value>
6.69

$$$$

###

# tested.system: NUAK2 (h) (Homo sapiens)
# Construct: This assay was done radiometrically using full-length, recombinant enzyme
# Sequence (Q9H093 whole entry): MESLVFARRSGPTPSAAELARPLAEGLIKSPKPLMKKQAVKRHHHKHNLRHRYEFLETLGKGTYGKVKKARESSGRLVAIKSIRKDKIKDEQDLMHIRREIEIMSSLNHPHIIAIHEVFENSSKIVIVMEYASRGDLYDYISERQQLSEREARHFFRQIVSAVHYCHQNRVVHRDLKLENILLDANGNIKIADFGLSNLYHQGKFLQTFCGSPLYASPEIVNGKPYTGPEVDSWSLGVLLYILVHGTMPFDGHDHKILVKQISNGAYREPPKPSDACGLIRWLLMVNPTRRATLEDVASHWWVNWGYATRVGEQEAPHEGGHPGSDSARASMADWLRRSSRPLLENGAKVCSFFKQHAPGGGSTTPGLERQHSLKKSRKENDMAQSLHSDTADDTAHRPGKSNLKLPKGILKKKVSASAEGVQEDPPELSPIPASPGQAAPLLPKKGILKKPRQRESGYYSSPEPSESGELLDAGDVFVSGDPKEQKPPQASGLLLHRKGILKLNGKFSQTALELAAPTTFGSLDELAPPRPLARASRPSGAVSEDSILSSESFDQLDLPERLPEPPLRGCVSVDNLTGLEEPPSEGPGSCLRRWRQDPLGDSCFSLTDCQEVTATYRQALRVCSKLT
# test.description: NUAK2 enzymatic assay (radiometric, Eurofins)
# assay.setup: radiometric, full-length recombinant enzyme
pIC50: −log10 of the molar value.
metric.name: pIC50

>  <mol>
NC(=O)c1sccc1Nc1nc(Nc2ccc(N3CCC(O)CC3)cc2OC(F)F)ncc1Cl

>  <tested.system>
NUAK2 (h) (Homo sapiens)

>  <metric.name>
pIC50

>  <recorded.value>
7.00 to 7.96

$$$$
>  <mol>
C[C@@H]1CN(C2CCN(c3ccc(Nc4ncc(Cl)c(Nc5ccsc5C(N)=O)n4)c(OC(F)F)c3)CC2)C[C@@H](C)N1C

>  <tested.system>
NUAK2 (h) (Homo sapiens)

>  <metric.name>
pIC50

>  <recorded.value>
8.00 to 10.00

$$$$
>  <mol>
NC(=O)c1sccc1Nc1nc(Nc2ccc(N3CCN4CCC[C@@H]4C3)cc2OC(F)F)ncc1Cl

>  <tested.system>
NUAK2 (h) (Homo sapiens)

>  <metric.name>
pIC50

>  <recorded.value>
8.00 to 10.00

$$$$
>  <mol>
NC(=O)c1sccc1Nc1nc(Nc2ccc(N3CCOCC3)cc2OC(F)F)ncc1Cl

>  <tested.system>
NUAK2 (h) (Homo sapiens)

>  <metric.name>
pIC50

>  <recorded.value>
7.00 to 7.96

$$$$
>  <mol>
CN1CCN(c2ccc(Nc3ncc(Cl)c(Nc4ccsc4C(N)=O)n3)c(OC(F)F)c2)CC1

>  <tested.system>
NUAK2 (h) (Homo sapiens)

>  <metric.name>
pIC50

>  <recorded.value>
8.00 to 10.00

$$$$
>  <mol>
CCN1CCN(c2ccc(Nc3ncc(Cl)c(Nc4cscc4C(N)=O)n3)c(OC(F)F)c2)CC1

>  <tested.system>
NUAK2 (h) (Homo sapiens)

>  <metric.name>
pIC50

>  <recorded.value>
8.00 to 10.00

$$$$
>  <mol>
CCN1CCN(C2CCN(c3ccc(Nc4ncc(C(F)(F)F)c(Nc5ccsc5C(N)=O)n4)c(OC(F)F)c3)CC2)CC1

>  <tested.system>
NUAK2 (h) (Homo sapiens)

>  <metric.name>
pIC50

>  <recorded.value>
8.00 to 10.00

$$$$

###

Reported IC50 is given for each of the following compounds.
# tested.system: NUAK1 (Homo sapiens, UniProt O60285)
# Sequence (O60285 1-661): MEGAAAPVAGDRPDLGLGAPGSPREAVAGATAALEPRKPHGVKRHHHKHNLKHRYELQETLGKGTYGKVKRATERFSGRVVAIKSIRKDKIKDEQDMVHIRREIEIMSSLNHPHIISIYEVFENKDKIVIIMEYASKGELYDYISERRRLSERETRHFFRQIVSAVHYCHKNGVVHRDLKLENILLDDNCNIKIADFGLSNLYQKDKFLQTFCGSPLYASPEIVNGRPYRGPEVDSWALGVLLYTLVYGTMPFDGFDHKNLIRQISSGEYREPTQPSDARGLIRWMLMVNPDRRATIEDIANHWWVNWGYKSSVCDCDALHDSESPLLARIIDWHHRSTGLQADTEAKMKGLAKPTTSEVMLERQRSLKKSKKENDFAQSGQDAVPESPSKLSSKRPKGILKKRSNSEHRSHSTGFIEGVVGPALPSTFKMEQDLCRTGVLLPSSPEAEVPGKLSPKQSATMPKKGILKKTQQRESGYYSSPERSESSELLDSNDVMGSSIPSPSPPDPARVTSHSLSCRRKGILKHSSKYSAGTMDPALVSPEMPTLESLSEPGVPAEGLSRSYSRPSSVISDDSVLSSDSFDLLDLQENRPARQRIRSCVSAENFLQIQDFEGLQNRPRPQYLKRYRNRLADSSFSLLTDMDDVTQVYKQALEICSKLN
Counter-ions that a name gives are not always drawn.

>  <compound>
CCN1CCN(C2CCN(c3ccc(Nc4ncc(Cl)c(Nc5ccsc5C(N)=O)n4)c(OC(F)F)c3)CC2)CC1

>  <IC50>
11 to 100 nM

$$$$
>  <compound>
COc1cc(N2CCC(N3CCN(C)CC3)CC2)ccc1Nc1ncc(Cl)c(Nc2ccsc2C(N)=O)n1 [Compound C-3, reference compound]

>  <IC50>
11 to 100 nM

$$$$
>  <compound>
CN1C2CCC1CN(c1ccc(Nc3ncc(Cl)c(Nc4sccc4C(N)=O)n3)c(OC(F)F)c1)C2

>  <IC50>
11 to 100 nM

$$$$
>  <compound>
CN1CCN(C2CCN(c3ccc(Nc4ncc(Cl)c(Nc5sccc5C(N)=O)n4)c(OC(F)F)c3)CC2)CC1

>  <IC50>
11 to 100 nM

$$$$
>  <compound>
CN1CCN(c2ccc(Nc3ncc(Cl)c(Nc4ccsc4C(N)=O)n3)c(Cl)c2F)CC1 [Compound C-4, reference compound]

>  <IC50>
0.1 to 10 nM

$$$$
>  <compound>
CN1CCN(c2ccc(Nc3ncc(Cl)c(N[C@@H]4CCC[C@@H]4C(N)=O)n3)c(C(F)(F)F)c2)CC1

>  <IC50>
101 to 1000 nM

$$$$
>  <compound>
CC(C)(C)N1CCN(C2CCN(c3ccc(Nc4ncc(C(F)(F)F)c(Nc5ccsc5C(N)=O)n4)c(OC(F)F)c3)CC2)CC1

>  <IC50>
11 to 100 nM

$$$$
>  <compound>
CC(C)Oc1cc(N2CCN(C)CC2)ccc1Nc1ncc(Cl)c(N[C@@H]2CCCC[C@@H]2C(N)=O)n1 [Compound C-6, reference compound]

>  <IC50>
> 1000 nM

$$$$
>  <compound>
CC(C)N1CCN(c2ccc(Nc3ncc(Cl)c(Nc4ccsc4C(N)=O)n3)c(OC(F)F)c2)CC1 [Compound I-12, hydrochloride]

>  <IC50>
0.1 to 10 nM

$$$$
>  <compound>
CN1CCN(C2CCN(c3ccc(Nc4ncc(Cl)c(N[C@@H]5CCCC[C@H]5C(N)=O)n4)c(OC(F)F)c3)CC2)CC1

>  <IC50>
11 to 100 nM

$$$$
>  <compound>
C[C@@H]1CN(C2CCN(c3ccc(Nc4ncc(Cl)c(Nc5ccsc5C(N)=O)n4)c(OC(F)F)c3)CC2)C[C@@H](C)N1C

>  <IC50>
11 to 100 nM

$$$$
>  <compound>
COc1c(Nc2ncc(Cl)c(Nc3ccsc3C(N)=O)n2)ccc(N2CCN(C)CC2)c1F [Compound C-2, reference compound]

>  <IC50>
0.1 to 10 nM

$$$$
>  <compound>
CN1C[C@@H]2CN(c3ccc(Nc4ncc(Cl)c(Nc5ccsc5C(N)=O)n4)c(OC(F)F)c3)C[C@@H]2C1

>  <IC50>
0.1 to 10 nM

$$$$
